# EXPERIMENTAL_DETAILS: basal HepG2 mitochondrial membrane potential changes, profiling panel, cell-based, JC-1 fluorescence, 24 h, 100 nL compound (AID 1167); note: test concentration not given here
# CONDITION_DESCRIPTION: higher = more signal
Decide by z-score: equal to or exceeding -0.2 means Satisfied, less means Not satisfied.

COMPOUND	QUALITATIVE_LABEL
C=C[C@@H](C)[C@H](O)c1ccc(OCCO)cc1	Satisfied
C=CCNC(=O)[C@@H]1[C@H]2C(=O)O[C@H](c3ccccc3)[C@H](c3ccccc3)N2[C@H](c2ccc(O)cc2)[C@@]12C(=O)Nc1ccc(C#CCC(C(=O)OC)C(=O)OC)cc12	Not satisfied
CO[C@H]1O[C@H](CO)[C@@H](OC(=O)Nc2cccc(F)c2)[C@H](OC(=O)Nc2ccccc2-c2ccccc2)[C@H]1OC(=O)Nc1ccccc1-c1ccccc1	Satisfied
C=CCN1C(=O)[C@@]2(O[C@@H](CCO)[C@H]([Si](C)(C)c3ccc(OC)cc3)[C@H]2C)c2cc(N3CCOC3=O)ccc21	Not satisfied
COc1ccc(CCNC(=O)[C@@]2(Cc3ccccc3I)c3ccccc3C(=O)N(Cc3ccccc3Cl)[C@H]2c2ccc(CO)cc2)cc1	Satisfied
O=C1N[C@@H](Cc2ccccc2)C(=O)N2[C@@H]1C[C@@H](C(=O)O)[C@H]2c1ccc(O)cc1	Satisfied
O=C1C2C=CC(C(O)c3ccc4c(c3)OCO4)N(Nc3ccccc3)C2C(=O)N1c1ccccc1 (centres undefined)	Not satisfied
COCCOC(=O)N1C(=O)[C@@]2(c3cc(C#CCNC(N)=O)ccc31)[C@H](c1ccc(OCCO)cc1)N1[C@H](c3ccccc3)[C@H](c3ccccc3)OC(=O)[C@H]1[C@@H]2C(=O)NC[C@H](O)c1ccccc1	Not satisfied
O=C1O[C@H](c2ccccc2)[C@H](c2ccccc2)N2[C@H]1[C@@H](C(=O)Nc1nc3ccccc3s1)[C@]1(C(=O)Nc3ccc(C#CC4=CCCCC4)cc31)[C@H]2c1ccc(O)cc1	Not satisfied
COC(=O)[C@@]1(Cc2ccc(OC)cc2)[C@H]2c3cc(C(=O)N4CCCC4)n(Cc4cc(C)n(C)n4)c3C[C@H]2CN1C(=O)c1ccccc1	Satisfied
COC(=O)C1=CC(CCCO)=CC(c2ccc(CN3CCCC3)cc2)N(Cc2cc3c(cc2Br)OCO3)C=C1C(=O)OC (centres undefined)	Satisfied
C=C[C@H](C)[C@H](OC(=O)Nc1ccc(OC)cc1)c1ccc(OCCO)cc1	Not satisfied
O=C(NCCN1CCOCC1)[C@@H]1c2ccccc2C(=O)N(Cc2ccccc2)[C@H]1c1ccc(CO)cc1	Satisfied

----------
Overview of reported composite z-score across a group of compounds:
# TARGET_DESC: Dihydroorotate dehydrogenase (quinone), mitochondrial (Plasmodium falciparum (isolate 3D7)) (UniProt Q08210)
# Sequence (Q08210 whole entry, looked up): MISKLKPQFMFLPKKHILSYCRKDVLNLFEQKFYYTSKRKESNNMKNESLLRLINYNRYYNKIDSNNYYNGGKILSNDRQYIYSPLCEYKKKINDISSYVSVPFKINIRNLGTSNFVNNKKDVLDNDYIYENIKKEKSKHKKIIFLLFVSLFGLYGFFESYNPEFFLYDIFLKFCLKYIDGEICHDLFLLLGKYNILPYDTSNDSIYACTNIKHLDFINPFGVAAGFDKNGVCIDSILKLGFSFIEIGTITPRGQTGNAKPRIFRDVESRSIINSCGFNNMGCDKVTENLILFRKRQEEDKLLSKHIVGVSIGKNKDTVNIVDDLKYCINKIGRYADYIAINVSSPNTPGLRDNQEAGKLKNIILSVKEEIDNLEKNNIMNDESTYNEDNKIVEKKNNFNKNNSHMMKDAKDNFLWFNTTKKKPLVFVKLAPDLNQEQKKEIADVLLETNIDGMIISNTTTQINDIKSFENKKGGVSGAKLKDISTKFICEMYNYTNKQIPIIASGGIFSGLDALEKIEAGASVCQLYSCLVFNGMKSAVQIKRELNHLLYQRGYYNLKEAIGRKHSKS
# EXPERIMENTAL_DETAILS: PfDHODH enzyme inhibitors, primary screen, biochemical, C-terminal His tag, absorbance 600 nm (AID 1175);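 note: recombinant parasite enzyme with a five histidine tag at its C terminus; test concentration not given here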
# CONDITION_DESCRIPTION: DCIP absorbance 600 nm, higher = more signal, called active from +8 up or from −8 down
REPORTED_PROPERTY: composite z-score

COMPOUND	REPORTED_RESULT
COc1ccc([Si](C)(C)[C@@H]2[C@@H](CC(=O)N3Cc4ccccc4C[C@H]3CO)O[C@]3(C(=O)N(c4ccccc4)c4ccccc43)[C@H]2C)cc1	1.13
COc1ccc(C#Cc2ccc3c(c2)[C@]2(C(=O)N3)[C@H](c3ccc(OCCO)cc3)N3[C@H](c4ccccc4)[C@H](c4ccccc4)OC(=O)[C@H]3[C@@H]2C(=O)N2CCc3cc(OC)c(OC)cc3C2)cc1	-1.84
CC(C)N1CC=CC23O[C@@H]4/C=C\CCCOC(=O)C4[C@H]2C(=O)N(CCCCCCO)[C@@H]3C1=O (stereo partly drawn)	-0.475
